- measurement.notes: NCI Yeast Anticancer Drug Screen. Data for the rad50 strain (AID 155);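 also: 0% = growth of vehicle-only cultures of the same strain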
- measurement.conditions: S. cerevisiae rad50 strain growth inhibition; at 50.0 µM; active compounds read high
This is part of a sample that, as a whole, favours compounds with a hit. Of some 79,000 tested, about 15% had one in any assay.
Below is a list of entries, each paired with its recorded growth inhibition value.
State just the number; it will be interpreted in %.

Before answering, review these 6 worked examples.
N#Cc1c(-c2ccc(Cl)cc2)c(-c2ccc(Cl)cc2)nn(CCOC(=O)CN)c1=O : 40.5
CCOC(=O)N(c1ccccc1)N(CC)C(=O)/C(C)=N/Nc1ccc([N+](=O)[O-])cc1 : 97.7
CC(C)OP(=O)(CCCCCCCCC/C=C/c1ccc2c(c1)OCCOCCOCCOCCO2)OC(C)C : 97.8
O=C(O)C(O)C(O)C(OC1OC(CO)C(O)C(O)C1O)C(O)CO.[Br][Pt].[NH-]C1CCCCC1[NH-] (centres undefined) : 67.8
CCNC(=O)COc1ccc(Cl)cc1Cl : -17.6
CCCC1(C)C(C#N)(C#N)C1(C#N)C#N : 98.5

Sample `CCC(C)(C)NCCCCCNc1cc(OC)cc2cccnc12` ; growth inhibition observed: 76.2

Sample `c1ccc2c(B(c3cccc4ccccc34)c3cccc4ccccc34)cccc2c1` ; growth inhibition observed: 99.1
